- Tested on: BaF3
- Assay: Antiproliferative activity against mouse BaF3 cells harboring EGFR del19/T790M/C797S triple mutant assessed as inhibition of cell growth incubated for 72 hrs by CCK-8 assay
- Format: functional, cell-based
- Experimental Context: BaF3, 72 h
pIC50: −log10 of the molar value.
Reported Endpoint: pIC50

Compound	Experimental Target	Reported Endpoint	Meas Value
C=CC(=O)N1CCCCCCn2cc(c3ccccc32)-c2ccnc(n2)Nc2cc1ccc2F	BaF3	pIC50	6.16
C=CC(=O)N1CCCCCCn2cc(c3ccccc32)-c2ccnc(n2)Nc2cccc1c2	BaF3	pIC50	6.08
C=CC(=O)N1CCCCCCCn2cc(c3ccccc32)-c2ccnc(n2)Nc2cc1ccc2F	BaF3	pIC50	6.15
C=CC(=O)N1CCCCCCn2cc(c3ccccc32)-c2ccnc(n2)Nc2cc1ccc2OC	BaF3	pIC50	6.05
C=CC(=O)N1CCCCCCCn2cc(c3ccccc32)-c2ccnc(n2)Nc2cc1ccc2OC	BaF3	pIC50	6.06
C=CC(=O)N1CCCCCCCn2cc(c3ccccc32)-c2ccnc(n2)Nc2cccc1c2	BaF3	pIC50	6.09
C=CC(=O)Nc1cc(Nc2nccc(-c3cn(C)c4ccccc34)n2)c(OC)cc1N(C)CCN(C)C [OSIMERTINIB]	BaF3	pIC50	6.07
C=CC(=O)N1CCCCCCn2cc(c3ccccc32)-c2ccnc(n2)Nc2cc1c(OCCCF)cc2F	BaF3	pIC50	6.08

====

- Experimental Target: Epidermal growth factor receptor (Homo sapiens, UniProt P00533, 746-750DEL/T790M)
- Sequence (P00533 whole entry, looked up, stated change not applied): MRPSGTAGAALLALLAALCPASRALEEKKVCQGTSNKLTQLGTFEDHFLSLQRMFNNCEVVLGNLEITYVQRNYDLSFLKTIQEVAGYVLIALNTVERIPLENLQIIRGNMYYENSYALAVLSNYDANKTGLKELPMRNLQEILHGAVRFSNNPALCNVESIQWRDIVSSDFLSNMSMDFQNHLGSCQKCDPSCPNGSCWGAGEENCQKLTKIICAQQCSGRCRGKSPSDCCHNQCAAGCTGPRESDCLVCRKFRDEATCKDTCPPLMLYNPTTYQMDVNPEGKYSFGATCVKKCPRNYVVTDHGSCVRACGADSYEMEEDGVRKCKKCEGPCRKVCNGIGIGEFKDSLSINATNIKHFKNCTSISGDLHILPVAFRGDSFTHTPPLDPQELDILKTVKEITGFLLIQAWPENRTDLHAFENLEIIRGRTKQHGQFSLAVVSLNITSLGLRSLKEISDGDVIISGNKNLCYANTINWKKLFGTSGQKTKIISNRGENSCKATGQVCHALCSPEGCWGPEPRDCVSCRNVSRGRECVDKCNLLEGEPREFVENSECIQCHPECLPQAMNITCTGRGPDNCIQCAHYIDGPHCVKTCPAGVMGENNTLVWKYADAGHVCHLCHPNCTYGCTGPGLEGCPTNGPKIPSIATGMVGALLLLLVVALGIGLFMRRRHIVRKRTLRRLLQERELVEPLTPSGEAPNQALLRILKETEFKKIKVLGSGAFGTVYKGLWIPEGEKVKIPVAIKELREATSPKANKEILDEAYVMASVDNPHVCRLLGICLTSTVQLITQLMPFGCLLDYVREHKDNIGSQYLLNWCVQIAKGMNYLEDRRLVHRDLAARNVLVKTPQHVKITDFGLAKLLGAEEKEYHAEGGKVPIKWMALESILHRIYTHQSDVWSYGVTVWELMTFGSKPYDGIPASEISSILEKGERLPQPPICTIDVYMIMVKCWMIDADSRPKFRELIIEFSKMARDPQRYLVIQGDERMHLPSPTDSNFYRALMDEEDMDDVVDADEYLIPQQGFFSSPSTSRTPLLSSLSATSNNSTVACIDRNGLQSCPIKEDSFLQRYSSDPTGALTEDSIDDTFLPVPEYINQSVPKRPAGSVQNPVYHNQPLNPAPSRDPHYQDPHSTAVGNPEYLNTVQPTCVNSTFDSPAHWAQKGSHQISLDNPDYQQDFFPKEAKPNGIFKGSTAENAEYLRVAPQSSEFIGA
- Assay: Inhibition of EGFR d746-750/T790M double mutant (unknown origin)
Reported Endpoint: IC50 (nM)

Chemical String	IC50 / nM
C=CC(=O)N1CCCCCCn2cc(c3ccccc32)-c2ccnc(n2)Nc2cc1c(OCCCF)cc2F	0.6

I = C=CC(=O)N1CCCCCCCCn2cc(c3ccccc32)-c2ccnc(n2)Nc2cccc1c2
II = C=CC(=O)N1CCCCCCCn2cc(c3ccccc32)-c2ccnc(n2)Nc2cc1c(OCCCF)cc2F
Request: Which value of IC50 is greater, the one for I or the one for II ? Response format: the label of the selected entry.
Response: I
(I: 7.03 nM, II: 2.96 nM)

====

- Experimental Target: Epidermal growth factor receptor (Homo sapiens, UniProt P00533, 746-750DEL/T790M)
- Assay: Inhibition of EGFR d746-750/T790M double mutant (unknown origin)
pIC50: −log10 of the molar value.
Reported Endpoint: pIC50

Chemical String	Experimental Target	pIC50
C=CC(=O)N1CCCCCCn2cc(c3ccccc32)-c2ccnc(n2)Nc2cc1ccc2F	Epidermal growth factor receptor (Homo sapiens, UniProt P00533, 746-750DEL/T790M)	9.66
C=CC(=O)N1CCCCCCCn2cc(c3ccccc32)-c2ccnc(n2)Nc2cc1ccc2OC	Epidermal growth factor receptor (Homo sapiens, UniProt P00533, 746-750DEL/T790M)	9.19
C=CC(=O)N1CCCCCCn2cc(c3ccccc32)-c2ccnc(n2)Nc2cc1ccc2OC	Epidermal growth factor receptor (Homo sapiens, UniProt P00533, 746-750DEL/T790M)	9.33

I = C=CC(=O)N1CCCCCCCn2cc(c3ccccc32)-c2ccnc(n2)Nc2cccc1c2
II = C=CC(=O)N1CCCCCCCCCn2cc(c3ccccc32)-c2ccnc(n2)Nc2cccc1c2
Request: Of the pair I and II , name the member with the lesser recorded pIC50. Use the label to indicate which entry you chose.
Response: II
